Taken from ChEMBL document CHEMBL3872210.

Known selectivity ratio of a selection of compounds
Test: Selectivity index, ratio CC50 for cytotoxicity against human HT-29 cells to EC50 for photocytotoxicity against human HT-29 cells
Format: toxicity, cell-based
Conditions: read-out: Ratio CC50/EC50

record smiles: NC(=O)c1cc2c(n1Cc1ccccc1)-c1nc(NC3CCCCC3)ncc1CCC2
selectivity ratio: > 270
//
record smiles: CCOC(=O)c1cc2c(n1Cc1ccccc1)-c1nc(N)ncc1CCC2
selectivity ratio: 284
//
record smiles: COc1ccc(Cn2c(C(N)=O)cc3c2-c2nc(NC4CCCCC4)ncc2CCC3)cc1
selectivity ratio: > 243
//
record smiles: COc1ccc(Cn2c(C(N)=O)cc3c2-c2nc(N)ncc2CCC3)cc1
selectivity ratio: > 50
//
record smiles: CCOC(=O)c1cc2c(n1Cc1ccc(OC)cc1)-c1nc(Nc3ccccc3)ncc1CCC2
selectivity ratio: > 1470
//
record smiles: NC(=O)c1cc2c(n1Cc1ccccc1)-c1nc(Nc3ccccc3)ncc1CCC2
selectivity ratio: > 281
//
record smiles: CCOC(=O)c1cc2c(n1C)-c1nc(NC3CCCCC3)ncc1CCC2
selectivity ratio: > 1110
//
record smiles: CCOC(=O)c1cc2c(n1Cc1ccc(OC)cc1)-c1nc(NC3CCCCC3)ncc1CCC2
selectivity ratio: > 735
//
record smiles: NC(=O)c1cc2c(n1Cc1ccccc1)-c1nc(N)ncc1CCC2
selectivity ratio: > 46
//
record smiles: COc1ccc(Cn2c(C(N)=O)cc3c2-c2nc(Nc4ccccc4)ncc2CCC3)cc1
selectivity ratio: > 360
//
record smiles: CCOC(=O)c1cc2c(n1Cc1ccccc1)-c1nc(Nc3ccccc3)ncc1CCC2
selectivity ratio: > 143
//
record smiles: Cn1c(C(N)=O)cc2c1-c1nc(Nc3ccccc3)ncc1CCC2
selectivity ratio: > 54
//
record smiles: CCOC(=O)c1cc2c(n1Cc1ccccc1)-c1nc(NC3CCCCC3)ncc1CCC2
selectivity ratio: > 1240
//
record smiles: CCOC(=O)c1cc2c(n1Cc1ccc(OC)cc1)-c1nc(N)ncc1CCC2
selectivity ratio: > 348
//
record smiles: CCOC(=O)c1cc2c(n1C)-c1nc(Nc3ccccc3)ncc1CCC2
selectivity ratio: > 348
//
record smiles: CCOC(=O)c1cc2c(n1C)-c1nc(N)ncc1CCC2
selectivity ratio: > 58
//
record smiles: Cn1c(C(N)=O)cc2c1-c1nc(NC3CCCCC3)ncc1CCC2
selectivity ratio: > 67
